- TESTED_ON: T1, mouse PRLR on HEK293/mPRLR cells (Mus musculus, UniProt Q08501)
- T1 construct: HA; expressed in transfected cells; host or cells: HEK293
- T1 sequence (Q08501 20-608): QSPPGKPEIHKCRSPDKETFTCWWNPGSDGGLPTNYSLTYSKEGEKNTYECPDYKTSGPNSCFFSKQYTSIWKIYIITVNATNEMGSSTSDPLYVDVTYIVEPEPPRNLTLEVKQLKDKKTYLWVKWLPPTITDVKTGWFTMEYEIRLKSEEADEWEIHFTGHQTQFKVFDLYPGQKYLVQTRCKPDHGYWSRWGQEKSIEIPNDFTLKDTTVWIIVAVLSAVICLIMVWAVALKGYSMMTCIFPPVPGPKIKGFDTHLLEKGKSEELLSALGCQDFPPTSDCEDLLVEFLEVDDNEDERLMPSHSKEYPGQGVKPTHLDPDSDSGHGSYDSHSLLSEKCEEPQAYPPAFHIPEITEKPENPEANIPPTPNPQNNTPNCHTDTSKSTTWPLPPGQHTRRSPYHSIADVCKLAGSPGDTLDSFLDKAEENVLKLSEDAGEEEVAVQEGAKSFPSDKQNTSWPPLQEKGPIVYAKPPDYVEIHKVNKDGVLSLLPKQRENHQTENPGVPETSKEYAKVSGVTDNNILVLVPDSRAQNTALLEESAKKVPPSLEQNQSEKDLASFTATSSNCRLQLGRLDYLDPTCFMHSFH
- METHOD: FACS cell surface binding
OBSERVED_PROPERTY: FACS Cell Binding (Fold Above Background)
State just the number; it will be interpreted in Fold Above Background.

INPUT: Entry H1H6976N: anti-PRLR antibody, human IgG1 Fc form of H2M6976N of Table 1; HCVR/LCVR SEQ ID NOs 386/394 (antibody, V domains shown, human IgG1 Fc) VH: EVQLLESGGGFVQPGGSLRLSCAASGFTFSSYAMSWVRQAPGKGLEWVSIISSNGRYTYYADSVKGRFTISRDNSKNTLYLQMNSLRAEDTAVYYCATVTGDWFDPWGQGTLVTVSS VL: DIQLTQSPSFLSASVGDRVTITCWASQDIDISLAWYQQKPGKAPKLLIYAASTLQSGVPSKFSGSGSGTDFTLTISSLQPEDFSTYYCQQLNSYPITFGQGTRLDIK : reported FACS Cell Binding = ?
OUTPUT: 1
